targetEntity: T1, full-length beta-Catenin (Uniprot ID P35222) (Homo sapiens (Human), UniProt P35222 1-781)
T1 construct: Used full-length in the FP and AlphaScreen assays; also called B-Catenin; bCat
T1 sequence: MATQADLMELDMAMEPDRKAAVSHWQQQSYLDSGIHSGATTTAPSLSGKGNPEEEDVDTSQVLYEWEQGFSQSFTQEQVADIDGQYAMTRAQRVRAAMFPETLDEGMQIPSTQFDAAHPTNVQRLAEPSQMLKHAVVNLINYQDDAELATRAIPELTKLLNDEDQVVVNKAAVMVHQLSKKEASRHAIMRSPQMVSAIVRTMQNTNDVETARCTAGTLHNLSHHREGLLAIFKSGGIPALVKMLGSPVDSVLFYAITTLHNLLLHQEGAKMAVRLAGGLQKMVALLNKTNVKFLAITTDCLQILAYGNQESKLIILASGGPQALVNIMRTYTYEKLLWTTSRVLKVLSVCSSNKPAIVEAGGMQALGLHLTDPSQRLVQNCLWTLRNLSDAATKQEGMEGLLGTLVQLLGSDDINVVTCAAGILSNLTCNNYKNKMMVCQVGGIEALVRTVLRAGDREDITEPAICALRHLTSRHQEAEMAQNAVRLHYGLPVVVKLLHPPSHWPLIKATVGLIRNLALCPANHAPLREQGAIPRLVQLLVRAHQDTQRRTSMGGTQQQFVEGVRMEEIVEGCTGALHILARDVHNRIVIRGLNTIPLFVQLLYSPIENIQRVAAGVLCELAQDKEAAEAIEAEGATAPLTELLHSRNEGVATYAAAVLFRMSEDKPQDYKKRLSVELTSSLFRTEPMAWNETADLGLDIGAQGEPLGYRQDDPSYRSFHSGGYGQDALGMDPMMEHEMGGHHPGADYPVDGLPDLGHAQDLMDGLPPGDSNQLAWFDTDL
procedureDetails: AlphaScreen (nickel chelate) competition; full-length beta-catenin + biotin-TCF4(10-53) probe as competitor; peptide titrated
pEC50: −log10 of the molar value. Starred links: 1 amine or outer side, 2 acyl side, 3 side chain; linkers in the order of their positions; H or OH if unused. Positions of bridges follow the written chain, without caps; N, C: chain ends. Non-standard residues stand in square brackets, D forms with d. Primed or numbered codes have the meaning given here. B5(4) = 2,2-bis(4-pentenyl)glycine = 2-amino-2-(pent-4-en-1-yl)hept-6-enoic acid (stitching residue), C=CCCCC(CCCC=C)(N[*:1])C(=O)[*:2]; B5(5) = 2,2-bis(4-pentenyl)glycine, 2-amino-2-(pent-4-en-1-yl)hept-6-enoic acid (stitching residue), C=CCCCC(CCCC=C)(N[*:1])C(=O)[*:2]; Phe(F5) = N[C@@H](Cc1c(F)c(F)c(F)c(F)c1F)C(=O)O; αAllylPro = C=CC[C@@]1(C(=O)O)CCCN1; S8 = C=CCCCCCC[C@](C)(N)C(=O)O
Returns fulfilled if the recorded pEC50 is greater than or equal to 6, and not fulfilled otherwise.

Solved entries (count: 2):
binder	classLabel
Ac-[αAllylPro]DI[B5(5)]DEAAFV[S8]FWH-NH2 (staple 1-4, 4-11, Stapled peptide composition) [I-176]	fulfilled
XDAXDEAAFQXFWH (not fully specified; As printed: Ac-PL3-Asp-Ala-B5-Asp-Glu-Ala-Ala-Phe-Gln-S8-Phe-Trp-His-NH2. N-terminal Ac; C-terminal amide; PL3 (1), B5 (4), S8 (11) stapled by olefin metathesis (PL3-B5 and B5-S8), Stapled peptide composition) [I-178]	fulfilled

Answer whether pEC50 of XDAXDEAAFAXFWA (not fully specified; As printed: Ac-PL3-Asp-Ala-B5-Asp-Glu-Ala-Ala-Phe-Ala-S8-Phe-Trp-Ala-NH2. N-terminal Ac; C-terminal amide; PL3 (1), B5 (4), S8 (11) stapled by olefin metathesis (PL3-B5 and B5-S8), Stapled peptide composition; this is the earlier-eluting isomer composition) [I-186] is greater than or equal to 6. fulfilled

Answer whether pEC50 of Ac-[αAllylPro]DA[B5(4)]DEAAFV[S8][Phe(F5)]WQ-NH2 (staple 1-4, 4-11, Stapled peptide composition) [I-183] is greater than or equal to 6. not fulfilled

Answer whether pEC50 of Ac-[αAllylPro]DA[B5(4)]HEAAFV[S8]FWQ-NH2 (staple 1-4, 4-11, Stapled peptide composition) [I-206] is greater than or equal to 6. not fulfilled

All values here come from patent US20240116985A1.
